# Subject of test: IadK2 (Variovorax paradoxus)
# Assay procedure: ITC, auxins binding to IadK2
# Experimental parameters: ITC, biphasic isotherm, IadK2 + IAA; mean ± SEM, 3 measurements; read-out: KD1
Measured quantity: pKd
// scale note: pKd = -log10(conc_M); give the bare number

Lookup: # return recorded pKd for input O=C(O)Cc1c[nH]c2ccccc12
Found: 6.28

* * *

# Subject of test: IadK2 mutants (Variovorax paradoxus, UniProt T1X8R6, W172A)
# Sequence (T1X8R6 entry or part of it W172A): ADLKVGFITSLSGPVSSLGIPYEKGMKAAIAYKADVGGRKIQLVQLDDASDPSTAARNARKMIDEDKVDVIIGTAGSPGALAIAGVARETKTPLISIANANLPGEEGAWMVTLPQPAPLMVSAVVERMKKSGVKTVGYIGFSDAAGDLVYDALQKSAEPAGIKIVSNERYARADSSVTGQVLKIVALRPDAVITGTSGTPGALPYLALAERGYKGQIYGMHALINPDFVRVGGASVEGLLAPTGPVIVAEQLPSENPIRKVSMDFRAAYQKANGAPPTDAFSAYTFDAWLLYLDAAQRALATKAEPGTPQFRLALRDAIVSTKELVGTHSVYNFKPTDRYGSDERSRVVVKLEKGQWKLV
# Assay procedure: ITC, IAA binding to IadK2 mutants
# Design: species or system Variovorax paradoxus CL14
# Experimental parameters: Kd, IadK2 mutant W172A, replicates
Measured quantity: Kd

Lookup: # return recorded Kd for input O=C(O)Cc1c[nH]c2ccccc12
Found: > 100 µM

* * *

# Subject of test: IadK3 (Variovorax paradoxus, UniProt A0A0H2LZ84)
# Sequence (A0A0H2LZ84 entry or part of it): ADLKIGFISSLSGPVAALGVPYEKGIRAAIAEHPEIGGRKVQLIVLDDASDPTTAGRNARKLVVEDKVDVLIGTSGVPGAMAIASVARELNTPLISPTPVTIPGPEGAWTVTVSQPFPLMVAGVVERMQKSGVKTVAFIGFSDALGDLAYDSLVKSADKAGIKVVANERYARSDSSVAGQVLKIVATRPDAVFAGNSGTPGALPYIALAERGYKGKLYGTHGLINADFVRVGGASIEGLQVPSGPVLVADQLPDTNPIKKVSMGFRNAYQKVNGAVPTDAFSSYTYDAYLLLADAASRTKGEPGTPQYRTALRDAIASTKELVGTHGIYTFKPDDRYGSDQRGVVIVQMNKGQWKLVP
# Assay procedure: ITC, auxins binding to IadK3
# Design: species or system Variovorax paradoxus CL14
pKd: −log10 of the molar value.
Measured quantity: pKd

Lookup: # return recorded pKd for input O=C(O)Cc1ccccc1
Found: < 4.00

* * *

# Subject of test: UniProtKB A0A0H2M433
# Sequence (A0A0H2M433 entry or part of it): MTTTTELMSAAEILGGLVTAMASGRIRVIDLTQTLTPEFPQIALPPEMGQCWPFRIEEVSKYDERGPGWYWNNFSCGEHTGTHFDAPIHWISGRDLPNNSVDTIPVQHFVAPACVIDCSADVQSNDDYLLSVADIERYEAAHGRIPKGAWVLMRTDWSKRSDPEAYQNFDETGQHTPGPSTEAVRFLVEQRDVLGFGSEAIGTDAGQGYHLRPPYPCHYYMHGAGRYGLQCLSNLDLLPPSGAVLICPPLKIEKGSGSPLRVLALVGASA
Measured quantity: Kd

Lookup: # return recorded Kd for input O=C(O)Cc1c[nH]c2ccccc12
Found: > 100 µM

* * *

# Subject of test: IadK2 mutants (Variovorax paradoxus, UniProt T1X8R6, R199A)
# Sequence (T1X8R6 entry or part of it R199A): as the sequence (T1X8R6 entry or part of it W172A) above, with A145W, R172A counted along it
# Assay procedure: ITC, IAA binding to IadK2 mutants
# Set-up: species or system Variovorax paradoxus CL14
# Experimental parameters: Kd, IadK2 R199A, IAA; mean ± SD
Measured quantity: pKd
// scale note: pKd = -log10(conc_M); give the bare number

Lookup: # return recorded pKd for input O=C(O)Cc1c[nH]c2ccccc12
Found: 4.95

* * *

# Subject of test: IadK2 mutants (Variovorax paradoxus, UniProt T1X8R6, S104V/W172L)
# Assay procedure: ITC, IAA binding to IadK2 mutants
# Set-up: species or system Variovorax paradoxus CL14
# Experimental parameters: Kd, IadK2 W172L/S104V, IAA
Measured quantity: Kd

Lookup: Please respond with reported Kd (system IadK2 mutants (Variovorax paradoxus, UniProt T1X8R6, S104V/W172L)) for O=C(O)Cc1c[nH]c2ccccc12 [IAA, indole-3-acetic acid] .
Found: > 100 µM

* * *

# Subject of test: IadK2 mutants (Variovorax paradoxus, UniProt T1X8R6, S104V)
# Sequence (T1X8R6 entry or part of it S104V): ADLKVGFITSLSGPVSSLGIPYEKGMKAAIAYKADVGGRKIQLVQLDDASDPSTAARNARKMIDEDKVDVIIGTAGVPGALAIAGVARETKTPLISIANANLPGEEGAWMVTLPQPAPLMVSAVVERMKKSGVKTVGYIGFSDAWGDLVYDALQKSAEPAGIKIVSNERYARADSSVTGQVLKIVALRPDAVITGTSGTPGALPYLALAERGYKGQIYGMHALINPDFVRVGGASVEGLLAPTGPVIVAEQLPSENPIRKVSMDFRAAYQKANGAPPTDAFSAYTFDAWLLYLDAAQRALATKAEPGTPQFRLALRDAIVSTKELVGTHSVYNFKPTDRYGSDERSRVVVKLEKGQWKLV
# Assay procedure: ITC, IAA binding to IadK2 mutants
# Design: species or system Variovorax paradoxus CL14
# Experimental parameters: Kd, IadK2 S104V, IAA; mean ± SD
Measured quantity: Kd (µM)
Note: unit µM is implicit; provide only the numeric part.

Lookup: # return recorded Kd for input O=C(O)Cc1c[nH]c2ccccc12
Found: 1.1

* * *

# Subject of test: IadF (Variovorax paradoxus)
# Sequence (A0A0H2MF82 entry or part of it): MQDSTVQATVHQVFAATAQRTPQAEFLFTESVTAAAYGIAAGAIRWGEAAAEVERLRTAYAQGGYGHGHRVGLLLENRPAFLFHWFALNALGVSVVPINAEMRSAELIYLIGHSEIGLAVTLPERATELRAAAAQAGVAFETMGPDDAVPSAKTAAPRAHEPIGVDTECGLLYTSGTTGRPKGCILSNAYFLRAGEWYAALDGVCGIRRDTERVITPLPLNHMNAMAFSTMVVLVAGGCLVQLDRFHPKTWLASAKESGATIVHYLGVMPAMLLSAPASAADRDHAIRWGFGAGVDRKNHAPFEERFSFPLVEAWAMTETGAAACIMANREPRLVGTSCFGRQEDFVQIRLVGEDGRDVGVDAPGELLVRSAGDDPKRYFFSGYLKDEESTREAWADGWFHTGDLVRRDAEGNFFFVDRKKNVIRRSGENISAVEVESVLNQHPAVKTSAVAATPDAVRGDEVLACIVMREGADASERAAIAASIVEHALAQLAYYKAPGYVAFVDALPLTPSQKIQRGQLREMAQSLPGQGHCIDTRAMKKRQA
Measured quantity: Kd

Lookup: Please respond with reported Kd (system IadF (Variovorax paradoxus)) for O=C(O)Cc1c[nH]c2ccccc12 .
Found: > 100 µM

* * *

# Subject of test: IadK2 (Variovorax paradoxus, UniProt T1X8R6)
# Sequence (T1X8R6 entry or part of it): as the sequence (T1X8R6 entry or part of it S104V) above, with V77S counted along it
# Assay procedure: ITC, auxins binding to IadK2
# Experimental parameters: ITC, single-phase isotherm, auxin analogs to IadK2; mean ± SEM
Measured quantity: Kd

Lookup: # return recorded Kd for input O=C(O)COc1ccc(Cl)cc1Cl
Found: > 100 µM
